ASSAY_SUMMARY: Zeta-potential measurement
Assay type: physicochemical
ASSAY_SETUP: zeta potential of peptide; Fig S15 source data
The entries below are paired with their reported Zeta-pot. / mV.
Field: numeric (mV). Do not append units.

Field: example entries. Status: answers known.
1) CKIKIQI [MG3b] ... 12.8
2) HHHHKIKIKIKIWWWW [TM4] ... 14.5
3) KIKIQII [TG1 / (KM4)] ... 5.61
4) NMWQKFKFQF [JG11] ... 9.56
5) CEFEFQFNMWQ [TM140] ... -34.23

Record summary for RGDSGGGGGGKIKIQIC [TM114 / RC17] : reported Zeta-pot. / mV = 16.7

substance KFKFKFQF [TG18] , Zeta-pot. / mV observed: 15.2

Kindly note the recorded Zeta-pot. / mV for KIKIQINMWQRGD [VH17-II] , which is 1.69

* * *

ASSAY_SUMMARY: Turbidity, derived count rate of scattered light
Type: physicochemical
ASSAY_SETUP: turbidity, Log10 of derived count rate of scattered light; Figure 3A source data
Item-by-item account of Log10 Count Rate
Form: value (number only, do not type unit).

1) QCKIKQIINM ... 4.313
2) CEFEFQFNMWQ ... 2.27
3) CETMYDKILKNLSRSR ... 3.041
4) KIKQII ... 2.086
5) KLKLKLQL ... 1.632

Log10 Count Rate for `MKIKIQINM` is 2.9918

For reference, reported Log10 Count Rate for `KIKIQINM` stands at 2.418

Short answer for `KIKIKIQINMWQ` : Log10 Count Rate was 3.205

// recorded Log10 Count Rate for `KIKQIIN` : 1.806

// sample `PPFHPPPFHP` , its Log10 Count Rate was 1.772

// field: Log10 Count Rate; key: `RPRGLLLGNLR` ; value = 2.322

Reported Log10 Count Rate for `MKFKFQF` was 2.0933

Short answer for `KFKQFFINMWQ` : Log10 Count Rate was 3.954

Input `KNERIKNERI` . Output Log10 Count Rate: 2.508

Sure, the documented Log10 Count Rate for `EIEIQINM` is 2.127

Documented Log10 Count Rate of `KIKIQIMWNQ` : 3.2757

For reference, reported Log10 Count Rate for `RGECKFKFQF` stands at 2.341

Log10 Count Rate reading for `KNDKND` : 1.719

Note to self: Log10 Count Rate recorded for `KIKIQII` was 3.017

Log10 Count Rate in this record for `KFKFKFQF` : 3.015

The reported Log10 Count Rate of the substance `NMWQKAKAQA` was 2.384

Log10 Count Rate for `HHHHKIKIQINMYYYY` is 3.753

Per the record, `CKIKIQIII` has Log10 Count Rate of 3.695

* * *

ASSAY_SUMMARY: β-sheet content by ATR-FT-IR
Type: physicochemical
ASSAY_SETUP: ATR-FT-IR
Label f if FTIR ß-sheet content/ % falls below 40%; label t in every other case.

1) CKIKQII [MG4a] ... f
2) KLKQLL [KM27 / psis14] ... f
3) RGEKIKIQINM [CN18] ... t

Exercise: Could you please find out whether KLKLQLL [TG4 / (KM2)] has FTIR ß-sheet content/ % that meets 40% or exceeds it?
Solution: f

Exercise: Textbook exercise: given the entry CRFRVPF [CN8] , state whether its FTIR ß-sheet content/ % is greater than or equal to 40%.
Solution: f

Exercise: Is it the case that CKIKQIINMWQ [MG5a / CK17] has FTIR ß-sheet content/ % reaching or exceeding 40%?
Solution: t

Exercise: Check the entry CKFKQFF [CK15] : does FTIR ß-sheet content/ % equal or exceed 40%?
Solution: t

Exercise: Given CHLHLQL [CN9] , state whether its FTIR ß-sheet content/ % is at least 40%.
Solution: t

* * *

ASSAY_SUMMARY: Turbidity, derived count rate of scattered light
Format: physicochemical
ASSAY_SETUP: derived count rate of scattered light
// bucketize Zeta Count Rate / kcps: class 1 = under 200 kcps, class 2 = from 200 kcps up to 3000 kcps, class 3 = 3000 kcps and over

Example entries begin here.
1. HHHHKIKIQINMYYYY [TM16] ... class 3
2. KFKQFFNMWQ [JG5] ... class 2

Exercise: Classify this substance: QCKFKQFFNM [CK11]
Solution: class 3

Exercise: Field: class (Zeta Count Rate / kcps) — entry: KFKFQFNMWQ [JG4]
Solution: class 2

Exercise: Class for KLKLKLQL [TG16] ?
Solution: class 1

Exercise: Form field 'band' for KIKIQIII [TG7]
Solution: class 1

Exercise: Which class is correct for the following substance? KFKFQFW [TM71]
Solution: class 1

* * *

ASSAY_SUMMARY: Zeta-potential measurement
Assay type: physicochemical
ASSAY_SETUP: mean, Std Zeta in next column
Below: a set of entries, each annotated with reported Zeta Pot. / mV.
Please respond with the number in mV and leave the unit unwritten.

Answered examples (10):
1. KIKIQI [JJA4] ... -5.63
2. KFKQFFNMWQ [JG5] ... -3.43
3. CKIKIQINM [MG2] ... 16.83
4. QCKAKAQA [CK24] ... 0.674
5. KIKIQINM [JGB2] ... 8.51
6. CKIKIQINMW [TM86] ... 18.3
7. CQFQFQF [QBL4] ... -24.8
8. KWKWQW [KB3] ... 7.55
9. CEIEIQINMWQ [TM143] ... -25.8
10. CRFRVPF [CN8] ... 4.413

According to the records, this substance QCKFKFQFNMWQ [CK7] displays Zeta Pot. / mV of 21.07

Form field Zeta Pot. / mV, entry KIKQIINMWQ [JG2] : 15.37

For this substance ( CEIEIQI [AR2/ TM142] ), measured Zeta Pot. / mV is -26.1

The substance listed as KIKQIINM [JGA2] shows Zeta Pot. / mV equal to 16.3

Zeta Pot. / mV in this record for KIKIQIC [TM112 / CN11] : 19.93

Entry KFKFQF [JJA6] , Zeta Pot. / mV reported as -11.03

What the record says about MKIKIQINMWQ [TM52] : Zeta Pot. / mV is 10.8

* * *

ASSAY_SUMMARY: Zeta-potential measurement
Format: physicochemical
ASSAY_SETUP: zeta-potential of peptide; source data of Figure 2C
Assign class by Zeta-Potential / mV: not lower than 9 mV means MET; lower than 9 mV means NOT MET.

1. HGDKCHGDKC ... NOT MET
2. QCKIKIQINMWQ ... MET
3. KFKFQFNMWQ ... MET
4. KIKIQIRGD ... NOT MET
5. RPRGLLLGNLR ... NOT MET

Exercise: Has `CKIKIQIRGD` a recorded Zeta-Potential / mV greater than or equal to 9 mV?
Solution: NOT MET

Exercise: Could you tell me if the measured Zeta-Potential / mV of `NMWQKFKFQF` reaches 9 mV or more?
Solution: MET

Exercise: Is it the case that `QCKAKAQA` has Zeta-Potential / mV reaching or exceeding 9 mV?
Solution: NOT MET

Exercise: Form field: Zeta-Potential / mV at least 9 mV? Entry: `NMWQKIKIQI`
Solution: NOT MET

Exercise: Hi, just wondering whether `CKFKQFFNM` shows Zeta-Potential / mV of 9 mV or higher.
Solution: MET

* * *

Tested on: TZM-bl cells
Type: cell-based
ASSAY_SETUP: CellTiter-Glo, peptide 0.26 µM, mean of n = 3 replicates
Parameter: viability 0.26 µM. Scope: all listed entries.
Just the number.

The cases that follow already have their viability 0.26 µM on record.
1. QCKAKAQANMWQ [CK22] ... 96.23
2. RGDKIKIQINMWQ [MG9a] ... 104.4
3. RGDKIKIQIC [MG7/CN1] ... 116.2
4. KIKQIINMWQ [JG2] ... 91.29

The record that follows has no viability 0.26 µM shown yet.
Measured viability 0.26 µM of RGDCKIKIQINM [TM45] : 111.8

* * *

Assay type: physicochemical
ASSAY_SETUP: Fig S10 panel D
MEASUREMENT_KIND: Tht category (> 2 to blank = +)

Take a look at these entries with their results.
1. HLHLPLL ... 0 (ThT-inactive (N-Fold <2))
2. CKIKIQINMW ... 0 (ThT-inactive (N-Fold <2))
3. HHHHEIEIEIEI ... 1 (ThT. Cat is 1, if Rel. ThT >2)
4. MKIKIQINMWQ ... 1 (ThT. Cat is 1, if Rel. ThT >2)
5. NMWQKAKAQA ... 1 (ThT. Cat is 1, if Rel. ThT >2)
6. KIKIQINMWWWQ ... 0 (ThT-inactive (N-Fold <2))
7. KAKAKAQA ... 0 (ThT-inactive (N-Fold <2))
8. KIKIQIW ... 1 (ThT. Cat is 1, if Rel. ThT >2)

Now examine the next entry.
Per the record, `KFKFQFNMW` has Tht category (> 2 to blank = +) of 0 (ThT-inactive (N-Fold <2))
